test_system: Peptide 5: Biotin-…-[Tyr(PC)]-acid
Sequence (peptide, as listed by the source): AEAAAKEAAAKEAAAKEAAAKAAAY
assay_remarks: scFv ELISA
Response key: 1 means OD450 >= 0.9 OD450; 0 means OD450 < 0.9 OD450.

// known answers, use as guide
1. PcOxP_DB01_B03 (scFv, V domains shown, scFv in periplasmic extract) VH: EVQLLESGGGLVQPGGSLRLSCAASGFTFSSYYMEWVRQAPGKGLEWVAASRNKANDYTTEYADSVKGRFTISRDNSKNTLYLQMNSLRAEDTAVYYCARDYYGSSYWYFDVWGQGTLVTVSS VL: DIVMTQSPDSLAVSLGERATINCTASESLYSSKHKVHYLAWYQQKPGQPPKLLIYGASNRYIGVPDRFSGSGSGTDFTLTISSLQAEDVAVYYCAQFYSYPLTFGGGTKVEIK: 1
2. PcOxP_DB03_B08 (scFv, V domains shown, scFv in periplasmic extract) VH: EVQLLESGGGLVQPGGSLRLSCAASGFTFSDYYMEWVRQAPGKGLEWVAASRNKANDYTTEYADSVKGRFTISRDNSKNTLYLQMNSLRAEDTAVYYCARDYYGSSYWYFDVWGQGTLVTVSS VL: DIVMTQSPDSLAVSLGERATINCTASESLYSSKHKVHYLAWYQQKPGQPPKLLIYGASNRYIGVPDRFSGSGSGTDFTLTISSLQAEDVAVYYCANFYSYPLTFGGGTKVEIK: 1
3. PcOxP_DB02_E08 (scFv, V domains shown, scFv in periplasmic extract) VH: EVQLLESGGGLVQPGGSLRLSCAASGFTFSDDYMEWVRQAPGKGLEWVAATRNKANDYTTEYADSVKGRFTISRDNSKNTLYLQMNSLRAEDTAVYYCARDYYGSSYWYFDSWGQGTLVTVSS VL: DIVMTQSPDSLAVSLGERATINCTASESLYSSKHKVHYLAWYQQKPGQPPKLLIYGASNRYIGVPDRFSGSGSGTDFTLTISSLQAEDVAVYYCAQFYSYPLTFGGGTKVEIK: 0
4. PcOxP_DB02_H10 (scFv, V domains shown, scFv in periplasmic extract) VH: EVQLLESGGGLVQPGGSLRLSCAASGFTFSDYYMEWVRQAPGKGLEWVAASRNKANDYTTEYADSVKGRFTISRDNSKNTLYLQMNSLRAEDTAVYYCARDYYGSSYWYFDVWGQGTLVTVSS VL: DIQMTQSPSSLSASVGDRVTITCTASESLYSSKHKVHYLAWYQQKPGKAPKLLIYGAGNRYIGVPSRFSGSGSGTDFTLTISSLQPEDFATYYCAQFYEYPLTFGGGTKVEIK: 1
5. PcOxP_DB01_G12 (scFv, V domains shown, scFv in periplasmic extract) VH: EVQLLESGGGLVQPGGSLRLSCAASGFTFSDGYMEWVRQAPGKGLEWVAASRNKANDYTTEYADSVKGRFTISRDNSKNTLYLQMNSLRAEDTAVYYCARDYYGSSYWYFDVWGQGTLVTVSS VL: DIQMTQSPSSLSASVGDRVTITCTASESLYSSKHKVHYLAWYQQKPGKAPKLLIYGASNRYFGVPSRFSGSGSGTDFTLTISSLQPEDFATYYCAQFYSYPLTFGGGTKVEIK: 1

Q: For this binder, is measured OD450 0.9 OD450 or higher? PcOxP_DB01_D07 (scFv, V domains shown, scFv in periplasmic extract) VH: EVQLLESGGGLVQPGGSLRLSCAASGFTFSDYYMEWVRQAPGKGLEWVAASRNKANDYTTEYADSVKGRFTISRDNSKNTLYLQMNSLRAEDTAVYYCARDYYGDSYWYFDVWGQGTLVTVSS VL: DIVMTQSPDSLAVSLGERATINCKASQSVLSSKNNVNYLAWYQQKPGQPPKLLIYGASNRYSGVPDRFSGSGSGTDFTLTISSLQAEDVAVYYCAQFYSYPLTFGGGTKVEIK
Ans: 0

Q: For this binder, is measured OD450 0.9 OD450 or higher? PcOxP_DB01_C09 (scFv, V domains shown, scFv in periplasmic extract) VH: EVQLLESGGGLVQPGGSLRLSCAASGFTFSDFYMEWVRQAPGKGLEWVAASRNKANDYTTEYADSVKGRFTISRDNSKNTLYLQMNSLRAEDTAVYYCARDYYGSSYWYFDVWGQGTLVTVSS VL: DIVMTQSPDSLAVSLGERATINCTASQSVYSSKNKVHYLAWYQQKPGQPPKLLIYGASNRYIGVPDRFSGSGSGTDFTLTISSLQAEDVAVYYCAQFYSYPLTFGGGTKVEIK
Ans: 1

Q: For this binder, is measured OD450 0.9 OD450 or higher? PcOxP_DB02_C04 (scFv, V domains shown, scFv in periplasmic extract) VH: EVQLLESGGGLVQPGGSLRLSCAASGQTFSDFYMEWVRQAPGKGLEWVAASRNKANGYTTEYTDSVKGRFTISRDNSKNTLYLQMNSLRAEDTAVYYCARDYYGSSYWYFDVWGQGTLVTVSS VL: DIVMTQSPDSLAVSLGERATINCTASESLYSSKHKVHYLAWYQQKPGQPPKLLIYGANNRYIGVPDRFSGSGSGTDFTLTISSLQAEDVAVYYCAQFYSYPLTFGGGTKVEIK
Ans: 0
